// data source = PubChem BioAssay AID179

System: CEM cells HIV-1 protection, formazan growth assay
procedure_summary: NCI AIDS Antiviral Assay
measurement_conditions: measured here: growth of uninfected CEM cells
pIC50: −log10 of the molar value.
measurement_kind: pIC50

Query: pIC50; subject: O=C(NNC(=S)NC1CCCCC1)C12CC3CC(CC(C3)C1)C2
Response: < 3.70

Query: pIC50; subject: CC(C)C(=O)Oc1cc2c(=O)oc3c(OC(=O)C(C)C)c(OC(=O)C(C)C)cc4c(=O)oc(c1OC(=O)C(C)C)c2c34
Response: < 4.30

Query: pIC50; subject: O=C1c2cccc([N+](=O)[O-])c2C(=O)N1CC[P+](c1ccccc1)(c1ccccc1)c1ccccc1
Response: < 3.70

* * *

Exercise: state measured IC50 for each of the molecules provided.
System: CEM cells HIV-1 protection, formazan growth assay
procedure_summary: NCI AIDS Antiviral Assay
measurement_conditions: measured here: growth of uninfected CEM cells

Query: Hello, I am looking for reported IC50 with CEM cells HIV-1 protection, formazan growth assay for CC1(C)/C=C/CC2(C)Oc3ccccc3C[C@@H]2CCC2(C)Oc3ccccc3C[C@@H]2C1 (stereo not given in full) . Could you help?
Response: > 12 µM

Query: Hello, I am looking for reported IC50 with CEM cells HIV-1 protection, formazan growth assay for Cc1ccc(/C=C2\NC(=S)NC2=O)cc1 . Could you help?
Response: > 200 µM

Query: Hello, I am looking for reported IC50 with CEM cells HIV-1 protection, formazan growth assay for CO/N=C/c1cc(OC)c(OC)c(OC)c1 . Could you help?
Response: > 813 µM

Query: Hello, I am looking for reported IC50 with CEM cells HIV-1 protection, formazan growth assay for C#CCOCC12C=CC(O1)C1COC(=O)C12 (stereo not given) . Could you help?
Response: > 200 µM

Query: Hello, I am looking for reported IC50 with CEM cells HIV-1 protection, formazan growth assay for O=S(=O)(O)CCCCBr . Could you help?
Response: > 200 µM

* * *

Test system: CEM cells HIV-1 protection, formazan growth assay
procedure_summary: NCI AIDS Antiviral Assay
measurement_conditions: measured here: growth of uninfected CEM cells
pIC50: −log10 of the molar value.
measurement_kind: pIC50

Query: pIC50; subject: CC(=O)O[C@]12CCC[C@H]1C1(O)C(O)CCC[C@H]12 (some centres not stated)
Response: < 3.70

Query: pIC50; subject: CC1=NC(C)(COC(=O)C2(C)NC(C)(CO)CO2)COC1=O (configuration not stated)
Response: < 3.70

Query: pIC50; subject: CCOC(=O)c1cc(C2CCN(CC(C)CC)C2=S)c(-c2cc(C)no2)[nH]1 (configuration not stated)
Response: < 3.70

Query: pIC50; subject: Cc1ccc(S(=O)(=O)/C(C#N)=C/n2ccc(=O)[nH]c2=S)cc1
Response: < 3.70

Query: pIC50; subject: Cc1cn(C2CC(N=[N+]=[N-])C(COC(=O)C(O)[C@@]3(O)CC[C@H]4[C@@H]5CCC6=CC(=O)C=C[C@]6(C)[C@H]5[C@@H](O)C[C@@]43C)O2)c(=O)[nH]c1=O (some centres not stated)
Response: < 3.70

Query: pIC50; subject: CCOC(=O)C(=O)Nc1nc2ccc(OC)cc2s1
Response: < 3.35

Query: pIC50; subject: COc1c2occc2c(N)c2ccc(=O)oc12
Response: < 4.02

Query: pIC50; subject: O=C1c2cccc3cccc(c23)C(=O)N1CCN1C(=O)c2cccc3cccc(c23)C1=O
Response: 4.52

Query: pIC50; subject: O=[N+]([O-])c1ccc(CSCc2ccc([N+](=O)[O-])cc2)cc1
Response: < 3.70

Query: pIC50; subject: CC(=O)NC1c2ccccc2C(C)(C)C12CCC1(CC2)OCCO1 (configuration not stated)
Response: < 3.70

Query: pIC50; subject: O=C(N=Nc1c(O)[nH]c2ccccc12)C(O)(c1ccccc1)c1ccccc1
Response: 4.40

Query: pIC50; subject: C/C(=N/OCCC(=O)O)C1CC1
Response: < 2.84

Query: pIC50; subject: O=C(CCN(CCO)CCO)Nc1ccc2c(c1)C(=O)c1ccc(NC(=O)CCN(CCO)CCO)cc1C2=O
Response: 5.78

Query: pIC50; subject: CN(C(=O)C1=CCCCCC1)c1ccccc1Br
Response: 3.41

Query: pIC50; subject: CC(=O)Oc1ccc2c(c1)O/C(=C\c1ccc(N(C)C)cc1)C2=O
Response: 4.54

Query: pIC50; subject: O=C(NCCNCCCNC(=O)c1cc(-c2ccccc2)nc2ccccc12)c1cccc(O)c1O
Response: 5.49

Query: pIC50; subject: CCOC(=O)CNS(=O)(=O)c1ccccc1
Response: < 3.70

* * *

Tested on: CEM cells HIV-1 protection, formazan growth assay
procedure_summary: NCI AIDS Antiviral Assay
measurement_conditions: measured here: growth of uninfected CEM cells
measurement_kind: pIC50
Remember, pIC50 is on a log scale: it is -log10 of the molar concentration.

Query: pIC50; subject: O=C(Nc1ccc(Cl)c(Cl)c1)OCCN1c2ccccc2Sc2ccccc21
Response: 4.42

Query: pIC50; subject: COC(=O)C1C(NCc2ccccc2)=CC(C)(C)C(C(=O)OC)C1c1ccccc1 (stereo not drawn)
Response: 3.78

* * *

Exercise: state measured pIC50 for each of the compounds provided.
Tested on: CEM cells HIV-1 protection, formazan growth assay
procedure_summary: NCI AIDS Antiviral Assay
measurement_conditions: measured here: growth of uninfected CEM cells
pIC50: −log10 of the molar value. Where a SMILES comes first, the peptide text is derived from it. The star is where a group is joined. Boc = CC(C)(C)OC(=O)*

Query: pIC50; subject: CCOC(=O)NNC(=O)NCc1ccccc1CNC(=O)NNC(=O)OCC
Response: < 3.70

Query: pIC50; subject: Cc1c(Cl)cccc1NC(=O)CC1C(=O)Nc2ccccc2S1(=O)=O (stereo not drawn)
Response: < 5.28

Query: pIC50; subject: CC(C(=O)NCCNC(=O)CCCC(=O)N(C)O)C(=O)NCCNC(=O)CCCC(=O)N(C)O
Response: < 3.70

Query: pIC50; subject: Cc1n[nH]c(=O)n1N1C(=O)CCCC1=O
Response: < 3.70

Query: pIC50; subject: N#Cc1cccc(N2C(=O)c3c(c(-c4ccccc4)c(-c4ccc(Sc5ccc(-c6c(-c7ccccc7)c7c(c(-c8ccccc8)c6-c6ccccc6)C(=O)N(c6cccc(C#N)c6)C7=O)cc5)cc4)c(-c4ccccc4)c3-c3ccccc3)C2=O)c1
Response: < 4.92

Query: pIC50; subject: O=C1NC(=O)C(=Cc2ccc(-c3ccccc3)cc2)C(=O)N1
Response: < 4.61

Query: pIC50; subject: N#Cc1ccc(OCc2ccc3nc(-c4ccccc4)c(Cl)nc3c2)cc1
Response: < 4.00

Query: pIC50; subject: C[C@@H]1C(=O)c2c(O)cc(O)cc2O[C@@H]1C
Response: < 3.70

Query: pIC50; subject: S=c1[nH]nc2n1NC(c1ccccc1)=NN2
Response: < 3.53

Query: pIC50; subject: Clc1ccc(-c2nnc(-c3nsc4ccccc34)o2)cc1
Response: < 4.92

Query: pIC50; subject: O=c1[nH]c2c(cnn2-c2ccccc2)c(=O)n1OS(=O)(=O)c1ccccc1
Response: < 3.70

Query: pIC50; subject: O=S1(=O)c2ccccc2C(O)(c2ccccc2)c2cc3ccccc3n21 (stereo not drawn)
Response: < 4.56

Query: pIC50; subject: CN(C)C1C(=O)C(C(=O)NCNCCCO)=C(O)C2(O)C(=O)C3=C(O)c4c(O)cccc4C(C)(O)C3CC12 (stereo not drawn)
Response: < 4.00

Query: pIC50; subject: CCOC(=O)c1c2ccc(/C=C/c3ccccc3)ccc-2c(C(=O)OCC)c1N
Response: < 5.15

Query: pIC50; subject: N#CC1(c2ccccc2)C(c2ccccc2)CC(O)(c2ccccc2)C(C(=O)c2ccccc2)C1c1ccccc1 (stereo not drawn)
Response: 4.82

Query: pIC50; subject: COC(=O)CCCC=C(c1cc(C)c(OC)c(C(=O)OC)c1)c1cc(C)c(OC)c(C(=O)OC)c1
Response: 4.05

Query: pIC50; subject: O=C(O)C(O)C(O)C(=O)O (stereo not drawn)
Response: < 3.70

Query: pIC50; subject: CC12CCC3(C1)[C@H](CC2=O)C[C@@H](OC(=O)c1ccccc1)C1C(C)(CO)CCC[C@@]13C (stereo partly drawn)
Response: 6.05

Query: pIC50; subject: Cc1cc(S(=O)(=O)Nc2nnc3ccccn23)c(S)cc1Cl
Response: 3.42

Query: pIC50; subject: Nc1cc(I)c2cccnc2c1O
Response: 5.90

Query: pIC50; subject: CCOC(=O)C(O)(NC(=O)c1ccc(F)cc1)C(F)(F)F (stereo not drawn)
Response: < 3.70

Query: pIC50; subject: CC(CCC=C(c1cc(Cl)c(O)c(C(=O)O)c1)c1cc(Cl)c(O)c(C(=O)O)c1)C1CCC2C3CC[C@@H]4CCCC[C@]4(C)C3CC[C@]12C (stereo partly drawn)
Response: < 5.14

Query: pIC50; subject: COC1C(N(C)C)=C(c2ccccc2)C(=O)N2CCc3ccccc3C12 (stereo not drawn)
Response: 3.77

Query: pIC50; subject: COC(=O)C1CCC(=O)C(Sc2ccccc2)C1 (stereo not drawn)
Response: 4.36

Query: pIC50; subject: COC(=O)C(Cc1c[nH]c2ccccc12)NC(=O)C(Cc1c[nH]c2ccccc12)NC(=O)C(Cc1c[nH]c2ccccc12)NC(=O)C(Cc1c[nH]c2ccccc12)NC(=O)OC(C)(C)C (stereo not drawn) (Boc-WWWW-OMe; configuration not given here)
Response: 4.86

Query: pIC50; subject: COc1ccc(C2=Nc3ccccc3N=C(SC)C2)cc1
Response: 4.75

Query: pIC50; subject: O=C(NO)c1ccc([N+](=O)[O-])cc1
Response: 4.53

Query: pIC50; subject: Cc1cccc2c(NCCC[N+](C)(C)[O-])c3c([N+](=O)[O-])ccc(C)c3nc12
Response: 6.43
